For each record, write down the corresponding kon.
- Tested on: T1, Macaca fascicularis (mf) RET.mmh (Macaca fascicularis)
- T1 construct: also called monkey RET
- T1 chain: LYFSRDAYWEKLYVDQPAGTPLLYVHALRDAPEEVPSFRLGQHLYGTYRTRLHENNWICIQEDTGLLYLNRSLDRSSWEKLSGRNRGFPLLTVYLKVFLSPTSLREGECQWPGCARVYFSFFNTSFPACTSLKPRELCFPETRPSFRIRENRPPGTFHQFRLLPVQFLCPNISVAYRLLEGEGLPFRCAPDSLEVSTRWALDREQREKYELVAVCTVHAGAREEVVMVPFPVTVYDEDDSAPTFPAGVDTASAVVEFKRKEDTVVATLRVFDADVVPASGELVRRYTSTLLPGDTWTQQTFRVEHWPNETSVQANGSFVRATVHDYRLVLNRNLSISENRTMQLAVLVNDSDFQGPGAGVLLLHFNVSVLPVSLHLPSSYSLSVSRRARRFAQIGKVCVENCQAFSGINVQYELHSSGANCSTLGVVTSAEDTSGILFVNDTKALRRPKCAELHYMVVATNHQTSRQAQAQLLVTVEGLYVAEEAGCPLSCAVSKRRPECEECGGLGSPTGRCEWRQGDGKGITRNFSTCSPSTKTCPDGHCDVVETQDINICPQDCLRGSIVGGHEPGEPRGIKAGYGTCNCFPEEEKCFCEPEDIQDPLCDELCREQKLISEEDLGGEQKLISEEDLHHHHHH
- Method notes: SPR Biacore T200, mAb capture, 37 C
Numeric only. Scale: M⁻¹ s⁻¹

The measured kon associated with H4H8076P (antibody, human IgG4, V domains shown, human IgG4 Fc (H4H prefix)) VH: QVQLQQSGPGLVKPSQTLSLTCAISGDSVSSNSVAWNWIRQSPSRGLEWLGRTYYRSNWYNTYAVSVKSRITIDPDTSKNQFSLQLNSVTPEDTALYYCARGHRYSGSYFDYWGQGTLVTVSS VL: DIQMTQSPSSLSASVGDRVTITCRASQNINSYFNWYQQKPGKAPKLLIYAASSLQSGVPSRFSGGGSGTDFTLTISSLQPEDFATYYCQQTYTIPWTFGQGTKVEIK reads 289000

The measured kon associated with H4H8084P (antibody, human IgG4, V domains shown, human IgG4 Fc (H4H prefix)) VH: QVQLVESGGGVVQPGRSLRLSCEASGFTFRNYGMHWVRQAPGKGLDWVSTIYYDGSDEYYSDSVKGRFTISRDNSKNTLYLQMNSLRAEDTAVYYCARDPPSFRYFDYWGQGTLVTVSS VL: DIQMTQSPSTLSASVGDRVTITCRASQSIRSWLTWYQQKPGKAPKVLIYKASTLERGVPSRFSGSGSGTEFTLTISSLQPEDFATYYCHQYSSYSYTFGQGTKLEIK reads 1.01e+06

The measured kon associated with H4H8067P (antibody, human IgG4, V domains shown, human IgG4 Fc (H4H prefix)) VH: QVQLVESGGGVVQPGRSLRLSCVASGFTFSNYGMHWVRQAPGKGLEWVALIWYDGSNKYFADSVKGRFTISRDNSKRMMFLEMNSLRAEDTAIYYCTRDRLFDFWGQGTLVTVSS VL: AIQMTQSPSSLSASVGDRVSITCRASQDIRHDLGWFHQKPGKAPKLLIYAASTLQSGVPSRFGGSGSGTDFTLTITSLQPEDFGTYYCLQDYNYPATFGQGTRLEIK reads 307000
